- Test system: Rattus norvegicus
- test: Antihypertensive activity in spontaneously hypertensive rat assessed as mean heart rate at 3 mg/kg, po after 4 hrs by tail cuff method relative to vehicle-treated control
- Type: functional
quantity name: Activity (bpm)
Quick note: give the figure in bpm, leave out the unit.

Observe how each entry below is paired with its result.
compound | target or system | measured result
CC(=O)NNc1nncc(-c2cccc(Cl)c2)n1 | Rattus norvegicus | 422
Cl.O.O=C(NNc1nncc(-c2ccccc2)n1)C12CC3CC(CC(C3)C1)C2 | Rattus norvegicus | 445
O=C(NNc1nncc(-c2ccc(Cl)c(Cl)c2)n1)C(F)(F)F | Rattus norvegicus | 430

Now examine the next entry.
Look up and report Activity, with Rattus norvegicus as system, for NNc1nncc2ccccc12 [HYDRALAZINE]
448

----------
- Test system: Rattus norvegicus
- test: Antihypertensive activity in spontaneously hypertensive rat assessed as mean heart rate at 30 mg/kg, po followed by second dosing at 24 hrs measured after 48 hrs by tail cuff method relative to vehicle-treated control
- Format: functional
quantity name: Activity (bpm)
Quick note: give the figure in bpm, leave out the unit.

Observe how each entry below is paired with its result.
compound | display unit | Activity
NNc1nncc2ccccc12 [HYDRALAZINE] | bpm | 448
CC(=O)NNc1nncc(-c2cccc(Cl)c2)n1 | bpm | 462
Cl.O.O=C(NNc1nncc(-c2ccccc2)n1)C12CC3CC(CC(C3)C1)C2 | bpm | 392

Look up and report Activity, with Rattus norvegicus as system, for O=C(NNc1nncc(-c2ccc(Cl)c(Cl)c2)n1)C(F)(F)F
426

----------
- test: Toxicity in ip dosed CF-1 mouse after 48 hrs
- condition description: in vivo
Below is a list of entries, each paired with its recorded LD50 at 48 h value.
Quick note: give the figure in mg/kg, leave out the unit.

compound | LD50 at 48 h / mg/kg
O=C(NNc1nncc(-c2ccccc2)n1)C(F)(F)F | 178
COc1ccc(-c2cnnc(NN)n2)cc1 | 56
Cl.O=C(NNc1nncc(-c2ccc(Cl)cc2)n1)C(Cl)(Cl)Cl | 237
Br.CC(N)C(=O)NNc1nncc(-c2cccc(Cl)c2)n1.O (configuration not stated) | 178
O=C(NNc1nncc(-c2cccc(Cl)c2)n1)C(F)(F)F | 237

Quickly give me recorded LD50 at 48 h for CC(C)C(=O)NNc1nncc(-c2ccccc2)n1.Cl
178

Quickly give me recorded LD50 at 48 h for CCCCCC(=O)NNc1nncc(-c2ccccc2)n1.Cl
178

Quickly give me recorded LD50 at 48 h for NNc1nncc(-c2cccc(C(F)(F)F)c2)n1
316

Quickly give me recorded LD50 at 48 h for COc1ccc(-c2cnnc(NNC(C)=O)n2)cc1
237

Quickly give me recorded LD50 at 48 h for O=C(NNc1nncc(-c2ccc(Cl)cc2)n1)C(F)(F)F
237

----------
- test: Toxicity in ip dosed CF-1 mouse after 48 hrs
- condition description: in vivo
quantity name: LD50 at 48 h

compound | measured result
O=C(NNc1nncc(-c2ccc(Cl)c(Cl)c2)n1)C(F)(F)F | > 300 mg/kg
O=C(CCl)NNc1nncc(-c2ccccc2)n1 | 100 mg/kg
NNc1nncc(-c2ccc(Cl)cc2)n1 | 237 mg/kg
CNNc1nncc(-c2ccc(Cl)cc2)n1 | 316 mg/kg
Cl.O=C(Cc1ccccc1)NNc1nncc(-c2ccccc2)n1 | 237 mg/kg
CNNc1nncc(-c2cccc(Cl)c2)n1 | 237 mg/kg
Cc1ccc(-c2cnnc(NNC(=O)C34CC5CC(CC(C5)C3)C4)n2)cc1.Cl | 216 mg/kg
O=C(NNc1nncc(-c2ccccc2)n1)c1ccccc1 | > 300 mg/kg
Cc1ccc(-c2cnnc(NN)n2)cc1.O | 224 mg/kg
O=C(CCCCl)NNc1nncc(-c2ccc(Cl)cc2)n1 | 237 mg/kg

Quickly give me recorded LD50 at 48 h for NNc1nncc(-c2cccc(Cl)c2)n1
237 mg/kg

Quickly give me recorded LD50 at 48 h for O=C(CCCl)NNc1nncc(-c2ccc(Cl)cc2)n1
237 mg/kg

Quickly give me recorded LD50 at 48 h for NNc1nncc(-c2ccccc2)n1
56 mg/kg

Quickly give me recorded LD50 at 48 h for Br.NCC(=O)NNc1nncc(-c2ccccc2)n1.O
75 mg/kg

Quickly give me recorded LD50 at 48 h for Cc1ccc(-c2cnnc(NNC(=O)Cc3ccccc3)n2)cc1
237 mg/kg

----------
- Test system: Rattus norvegicus
- test: Antihypertensive activity in spontaneously hypertensive rat assessed as mean heart rate at 30 mg/kg, po after 24 hrs by tail cuff method relative to vehicle-treated control
- Type: functional
Below is a list of entries, each paired with its recorded Activity value.
Quick note: give the figure in bpm, leave out the unit.

Observe how each entry below is paired with its result.
compound | target or system | quantity name | measured result
CC(=O)NNc1nncc(-c2cccc(Cl)c2)n1 | Rattus norvegicus | Activity | 438
Cl.O.O=C(NNc1nncc(-c2ccccc2)n1)C12CC3CC(CC(C3)C1)C2 | Rattus norvegicus | Activity | 412
NNc1nncc2ccccc12 [HYDRALAZINE] | Rattus norvegicus | Activity | 480

Now examine the next entry.
Quickly give me recorded Activity for O=C(NNc1nncc(-c2ccc(Cl)c(Cl)c2)n1)C(F)(F)F
438

----------
- Test system: Rattus norvegicus
- test: Antihypertensive activity in spontaneously hypertensive rat assessed as drop in mean systolic blood pressure at 100 mg/kg, po after 24 hrs by tail cuff method relative to vehicle-treated control
- Format: functional, Artery
The threshold is 50 mmHg. Values of Activity beneath it are tagged TRUE; values meeting or exceeding it are tagged FALSE.

Field: below-cutoff. Rule: recorded Activity strictly less than 50 mmHg. Subject: O=C(CCl)NNc1nncc(-c2ccccc2)n1
FALSE

----------
- System: Rattus norvegicus
- test: Antihypertensive activity in spontaneously hypertensive rat assessed as drop in mean systolic blood pressure at 100 mg/kg, po after 24 hrs by tail cuff method relative to vehicle-treated control
- Format: functional, Artery
Would you mind labelling by Activity? At or over 20 mmHg is Satisfied, under is Not satisfied.

Solved cases below.
molecule | target or system | cat
NNc1nncc(-c2cccc(C(F)(F)F)c2)n1 | Rattus norvegicus | Not satisfied
Br.CC(N)C(=O)NNc1nncc(-c2ccc(Cl)cc2)n1.O (stereo not drawn) | Rattus norvegicus | Satisfied
CC(=O)NNc1nncc(-c2ccccc2)n1 | Rattus norvegicus | Satisfied
O=C(NNc1nncc(-c2ccccc2)n1)C(Cl)Cl | Rattus norvegicus | Satisfied
NNc1nncc(-c2cccc(Cl)c2)n1 | Rattus norvegicus | Not satisfied

Can NNc1nncc(-c2ccc(Cl)cc2)n1 be said to have Activity at or above 20 mmHg?
Satisfied

----------
- test: Toxicity in ip dosed CF-1 mouse after 48 hrs
- condition description: in vivo
Below is a list of entries, each paired with its recorded LD50 at 48 h value.
Quick note: give the figure in mg/kg, leave out the unit.

Observe how each entry below is paired with its result.
compound | display unit | measured result
NNc1nncc2ccccc12 [HYDRALAZINE] | mg/kg | 100
CCC(=O)NNc1nncc(-c2ccc(Cl)cc2)n1 | mg/kg | 237
Br.NC(Cc1ccccc1)C(=O)NNc1nncc(-c2ccccc2)n1.O (centres undefined) | mg/kg | 178
CNNc1nncc(-c2ccccc2)n1 | mg/kg | 178

Quickly give me recorded LD50 at 48 h for O=C(NNc1nncc(-c2ccccc2)n1)C1CCCCC1
237

Quickly give me recorded LD50 at 48 h for Br.CC(C)C(N)C(=O)NNc1nncc(-c2ccc(Cl)cc2)n1.O (centres undefined)
178

Quickly give me recorded LD50 at 48 h for CC(=O)NNc1nncc(-c2ccc(Cl)c(Cl)c2)n1
237

Quickly give me recorded LD50 at 48 h for CNNc1nncc(-c2ccc(C)cc2)n1
316

Quickly give me recorded LD50 at 48 h for CC(=O)NNc1nncc(-c2ccccc2)n1
178

Quickly give me recorded LD50 at 48 h for O=C(NNc1nncc(-c2ccccc2)n1)C(Cl)Cl
178

Quickly give me recorded LD50 at 48 h for Br.CC(N)C(=O)NNc1nncc(-c2ccc(Cl)cc2)n1.O (centres undefined)
237

----------
- Test system: Rattus norvegicus
- test: Antihypertensive activity in spontaneously hypertensive rat assessed as drop in mean systolic blood pressure at 100 mg/kg, po after 24 hrs by tail cuff method relative to vehicle-treated control
- Type: functional, Artery
Below is a list of entries, each paired with its recorded Activity value.
Quick note: give the figure in mmHg, leave out the unit.

Observe how each entry below is paired with its result.
molecule | target or system | display unit | Activity
O=C(NNc1nncc(-c2ccc(Cl)cc2)n1)C(F)(F)F | Rattus norvegicus | mmHg | 46
Cc1ccc(-c2cnnc(NN)n2)cc1.O | Rattus norvegicus | mmHg | 28

Quickly give me recorded Activity for COc1ccc(-c2cnnc(NN)n2)cc1
26

Quickly give me recorded Activity for CC(C)C(=O)NNc1nncc(-c2ccccc2)n1.Cl
46

Quickly give me recorded Activity for Cc1ccc(-c2cnnc(NNC(=O)C34CC5CC(CC(C5)C3)C4)n2)cc1.Cl
0

Quickly give me recorded Activity for O=C(NNc1nncc(-c2ccccc2)n1)C1CCCCC1
51

Quickly give me recorded Activity for O=C(NNc1nncc(-c2ccccc2)n1)C(F)(F)F
29

Quickly give me recorded Activity for CCCCCC(=O)NNc1nncc(-c2ccccc2)n1.Cl
53

Quickly give me recorded Activity for O=C(NNc1nncc(-c2ccc(Cl)c(Cl)c2)n1)C(F)(F)F
29

Quickly give me recorded Activity for Br.NC(Cc1ccccc1)C(=O)NNc1nncc(-c2ccccc2)n1.O (stereo unspecified)
38

Quickly give me recorded Activity for CNNc1nncc(-c2cccc(Cl)c2)n1
35
